Measured values drawn from patent US11306063B2 for this set.

# SYSTEM: USP2 full length (USP2^FL) (Homo sapiens)
# Construct: purchased BioSciences 80352
# Sequence (O75604 whole entry): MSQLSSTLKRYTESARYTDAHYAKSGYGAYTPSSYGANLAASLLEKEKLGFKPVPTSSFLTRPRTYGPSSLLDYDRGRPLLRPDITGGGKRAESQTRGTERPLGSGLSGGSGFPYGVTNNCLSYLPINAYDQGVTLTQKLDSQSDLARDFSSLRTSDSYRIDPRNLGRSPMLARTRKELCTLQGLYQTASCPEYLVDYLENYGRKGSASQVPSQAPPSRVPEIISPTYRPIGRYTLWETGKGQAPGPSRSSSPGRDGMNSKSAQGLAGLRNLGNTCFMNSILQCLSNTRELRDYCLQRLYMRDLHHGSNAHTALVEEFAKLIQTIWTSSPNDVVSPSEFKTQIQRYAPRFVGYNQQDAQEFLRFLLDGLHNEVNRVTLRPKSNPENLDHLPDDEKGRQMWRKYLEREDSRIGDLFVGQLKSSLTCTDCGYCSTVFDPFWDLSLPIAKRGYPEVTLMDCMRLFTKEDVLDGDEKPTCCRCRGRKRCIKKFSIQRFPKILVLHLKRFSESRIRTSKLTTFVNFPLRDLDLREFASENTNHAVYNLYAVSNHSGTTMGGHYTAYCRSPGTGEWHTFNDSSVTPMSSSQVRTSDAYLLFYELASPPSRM
# TEST DESCRIPTION: Inhibition of Ub-AMC hydrolysis by USP2 full length
# Assay type: biochemical
# CONDITION PARAMETERS: 25 μM compound; Ub-AMC at 1 μM; Table 1a
Examples of compounds with documented inhibition at 25 µM follow.
Form entry: value (%) — number only.

SMILES NOTATION	inhibition at 25 µM / %
O=C1c2ccccc2C(=O)c2nc(CS(=O)(=O)c3cccs3)c(CS(=O)(=O)c3cccs3)nc21	70
O=C1c2ccccc2C(=O)c2nc(CS(=O)(=O)c3ccc(F)cc3)c(CS(=O)(=O)c3ccc(F)cc3)nc21	58
CC/C=C/c1nc2c(nc1/C=C/CC)C(=O)c1ccccc1C2=O	58
O=C1c2ccccc2C(=O)c2nc(CS(=O)(=O)c3ccc([N+](=O)[O-])cc3)c(CS(=O)(=O)c3ccc([N+](=O)[O-])cc3)nc21	94
Cc1cc(C)c(S(=O)(=O)Cc2nc3c(nc2CS(=O)(=O)c2c(C)cc(C)cc2C)C(=O)c2ccccc2C3=O)c(C)c1	85
O=C1c2ccccc2C(=O)c2nc(CCl)c(CCl)nc21	89

Query :: Query inhibition at 25 µM for O=C1c2ccccc2C(=O)c2nc(CS(=O)(=O)c3ccccc3)c(CS(=O)(=O)c3ccccc3)nc21
Result :: 78

Query :: Provide inhibition at 25 µM value for the following compound: Cc1ccc(S(=O)(=O)Cc2nc3c(nc2CS(=O)(=O)c2ccc(C)cc2)C(=O)c2ccccc2C3=O)cc1
Result :: 59

Query :: Please indicate inhibition at 25 µM recorded for O=C1c2ccccc2C(=O)c2nc(C=C3CCCC3)c(C=C3CCCC3)nc21
Result :: 98
